measurement-protocol: collision cross section in nitrogen (drift tube, single-field); higher = larger gas-phase ion size;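 note: chemical standards at 10 µM analysed by drift tube IMS-QTOF MS in about 3.95 torr nitrogen, mean of duplicate injections differing ≤1%, mass error below 10 ppm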
particulars: ion type: [M+H]; ion source: APCI; ion mode: Positive
property-label: collision cross section in nitrogen (Å²)
The reply should be a number in Å², with the unit left off.

Input: Which measured collision cross section in nitrogen value corresponds to CCC(=C(c1ccc(O)cc1)c1ccc(OCCN(C)C)cc1)c1ccccc1 [4-Hydroxytamoxifen] ?
Output: 201

Input: Item O=c1cc(-c2ccccc2)oc2cc(O)cc(O)c12 has what recorded collision cross section in nitrogen?
Output: 155.4

Input: Please give the measured collision cross section in nitrogen for this compound: CC(C)(C)c1ccc(N)cc1
Output: 147.3

Input: Item CC(C)C1(C)N=C(c2nc3ccccc3cc2C(=O)O)NC1=O (stereo not given) has what recorded collision cross section in nitrogen?
Output: 171.7

Input: Any idea what collision cross section in nitrogen was measured for Cc1cc(Cc2ccc(N)c(C)c2)ccc1N ?
Output: 179.1

Input: What measured collision cross section in nitrogen goes with Cc1ccc2ncccc2c1 ?
Output: 125.7

Input: Name the reported collision cross section in nitrogen value associated with the compound CSc1nnc(C(C)(C)C)c(=O)n1N
Output: 146.7

Input: # get_value(readout='collision cross section in nitrogen', item= CCCSP(=O)(OCC)SCCC )
Output: 151.3

Input: Dear colleague, I am looking for the recorded collision cross section in nitrogen of the following compound: c1ccc(C(O[C@@H]2CCCN(CCc3ccc4c(c3)OCO4)C2)c2ccccc2)cc1
Output: 192.3

Input: collision cross section in nitrogen for CCCCc1c(C)nc(NCC)nc1O ?
Output: 152.1
